Recorded pKd by entry
system: T1, EsCas13d, nuclease-dead (Eubacterium siraeum, UniProt B0MS50, R295A;H300A;R849A;H854A)
T1 sequence: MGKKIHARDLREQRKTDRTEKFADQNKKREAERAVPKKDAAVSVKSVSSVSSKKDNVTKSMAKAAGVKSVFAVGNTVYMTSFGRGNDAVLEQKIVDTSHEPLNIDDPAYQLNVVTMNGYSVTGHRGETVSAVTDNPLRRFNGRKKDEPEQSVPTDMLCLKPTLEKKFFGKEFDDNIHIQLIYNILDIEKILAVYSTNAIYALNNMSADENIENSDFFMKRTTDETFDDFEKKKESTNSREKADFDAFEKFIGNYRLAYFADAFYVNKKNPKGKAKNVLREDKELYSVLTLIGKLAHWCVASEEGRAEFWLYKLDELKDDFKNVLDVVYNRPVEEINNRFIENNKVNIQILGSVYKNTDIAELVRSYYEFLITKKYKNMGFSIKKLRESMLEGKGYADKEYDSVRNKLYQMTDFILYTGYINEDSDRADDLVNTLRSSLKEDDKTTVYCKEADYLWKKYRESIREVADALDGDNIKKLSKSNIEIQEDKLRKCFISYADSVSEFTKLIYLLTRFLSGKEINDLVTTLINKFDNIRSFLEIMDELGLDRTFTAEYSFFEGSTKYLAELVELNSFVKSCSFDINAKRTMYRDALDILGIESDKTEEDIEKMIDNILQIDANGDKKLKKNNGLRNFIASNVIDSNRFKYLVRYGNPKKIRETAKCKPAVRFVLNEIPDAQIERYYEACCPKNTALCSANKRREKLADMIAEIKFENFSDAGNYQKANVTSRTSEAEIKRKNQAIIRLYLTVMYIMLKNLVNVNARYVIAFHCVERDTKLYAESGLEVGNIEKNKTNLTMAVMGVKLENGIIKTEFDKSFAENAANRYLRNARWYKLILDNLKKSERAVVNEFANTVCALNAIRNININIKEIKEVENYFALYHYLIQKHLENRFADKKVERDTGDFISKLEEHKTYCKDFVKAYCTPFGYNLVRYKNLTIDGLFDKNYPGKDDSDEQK
assayOverview: crRNA (strand 1, pre-loaded); Mg2+; 40 mM Tris-HCl pH 7.5, 150 mM NaCl, 6 mM MgCl2, 1 mM DTT, 0.1% Tween-20, 0.2 mg/ml BSA; 25 C; 10 min per concentration, then washed
conditionSet: tags: His6-TwinStrep-SUMO cleaved; N-terminal SNAP kept (SNAP-Surface 488); label: 3' end held by stalled T7 RNA polymerase
Value format note: pKd is -log10 of concentration (mol/L); just state the number.

Some binders with known pKd results, for comparison:
- binder: "target 1 insC 3' of 19,insG 3' of 8 (mixed) RNA 1: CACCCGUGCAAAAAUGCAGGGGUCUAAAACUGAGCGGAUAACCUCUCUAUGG RNA 2: GGGAAUGGAUCCACAUCUACGAAUUCGUACCAUCAGAGAGGUUAUGCCGCUCACCGAGAUCGGAAGAGCACACGU"
  metric: "pKd"
  endpointResult: 7.35
- binder: "target 2 MT 5'PFS CUC 3'PFS ACG (mixed) RNA 1: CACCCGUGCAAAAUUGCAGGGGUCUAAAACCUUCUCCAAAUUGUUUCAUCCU RNA 2: GGGAAUGGAUCCACAUCUACGAAUUCCUCAGGAUGAAACAAUUUGGAGAAGACGAGAUCGGAAGAGCACACGU"
  metric: "pKd"
  endpointResult: 8.77
- binder: "target 2 MT 5'PFS GGC 3'PFS UCG (mixed) RNA 1: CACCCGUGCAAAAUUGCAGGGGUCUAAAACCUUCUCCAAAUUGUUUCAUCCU RNA 2: GGGAAUGGAUCCACAUCUACGAAUUCGGCAGGAUGAAACAAUUUGGAGAAGUCGAGAUCGGAAGAGCACACGU"
  metric: "pKd"
  endpointResult: 7.70
- binder: "target 2 MT 5'PFS AUG 3'PFS AUU (mixed) RNA 1: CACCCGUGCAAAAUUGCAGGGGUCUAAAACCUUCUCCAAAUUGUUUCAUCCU RNA 2: GGGAAUGGAUCCACAUCUACGAAUUCAUGAGGAUGAAACAAUUUGGAGAAGAUUAGAUCGGAAGAGCACACGU"
  metric: "pKd"
  endpointResult: 8.00
- binder: "target 1 insC 3' of 22,insG 3' of 14 (mixed) RNA 1: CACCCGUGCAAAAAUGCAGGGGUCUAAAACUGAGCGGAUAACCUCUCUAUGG RNA 2: GGGAAUGGAUCCACAUCUACGAAUUCGUACCCAUAGAGAGGGUUAUCCGCUCACCGAGAUCGGAAGAGCACACGU"
  metric: "pKd"
  endpointResult: 7.33
- binder: "target 2 MT 5'PFS GAA 3'PFS AUC (mixed) RNA 1: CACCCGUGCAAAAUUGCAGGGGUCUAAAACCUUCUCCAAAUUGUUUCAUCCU RNA 2: GGGAAUGGAUCCACAUCUACGAAUUCGAAAGGAUGAAACAAUUUGGAGAAGAUCAGAUCGGAAGAGCACACGU"
  metric: "pKd"
  endpointResult: 7.99
- binder: "target 1 U8A,A9C (mixed) RNA 1: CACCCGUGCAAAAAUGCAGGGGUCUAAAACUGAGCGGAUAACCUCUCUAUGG RNA 2: GGGAAUGGAUCCACAUCUACGAAUUCGUACCAUAGAGAGGUUCACCGCUCACCGAGAUCGGAAGAGCACACGU"
  metric: "pKd"
  endpointResult: 8.05
- binder: "target 1 A16C,C21U (mixed) RNA 1: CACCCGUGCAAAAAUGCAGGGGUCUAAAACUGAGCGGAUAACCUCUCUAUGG RNA 2: GGGAAUGGAUCCACAUCUACGAAUUCGUACUAUAGCGAGGUUAUCCGCUCACCGAGAUCGGAAGAGCACACGU"
  metric: "pKd"
  endpointResult: 8.07
- binder: "target 1 MT 5'PFS GAA 3'PFS UUU (mixed) RNA 1: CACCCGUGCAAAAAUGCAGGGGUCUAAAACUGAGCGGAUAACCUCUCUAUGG RNA 2: GGGAAUGGAUCCACAUCUACGAAUUCGAACCAUAGAGAGGUUAUCCGCUCAUUUAGAUCGGAAGAGCACACGU"
  metric: "pKd"
  endpointResult: 7.81
- binder: "target 1 MT 5'PFS UGU 3'PFS UCG (mixed) RNA 1: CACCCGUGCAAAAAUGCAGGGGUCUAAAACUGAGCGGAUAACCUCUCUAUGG RNA 2: GGGAAUGGAUCCACAUCUACGAAUUCUGUCCAUAGAGAGGUUAUCCGCUCAUCGAGAUCGGAAGAGCACACGU"
  metric: "pKd"
  endpointResult: 7.21

Entry target 2 MT 5'PFS GCC 3'PFS CCA (mixed) RNA 1: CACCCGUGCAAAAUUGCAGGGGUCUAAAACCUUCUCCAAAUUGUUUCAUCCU RNA 2: GGGAAUGGAUCCACAUCUACGAAUUCGCCAGGAUGAAACAAUUUGGAGAAGCCAAGAUCGGAAGAGCACACGU — recorded pKd = 7.70

Entry target 1 insA 3' of 8,insC 3' of 1 (mixed) RNA 1: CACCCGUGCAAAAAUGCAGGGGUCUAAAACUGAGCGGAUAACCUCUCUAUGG RNA 2: GGGAAUGGAUCCACAUCUACGAAUUCGUACCAUAGAGAGGUUAUACCGCUCACCCGAGAUCGGAAGAGCACACGU — recorded pKd = 7.83
